system-under-test: HLA-DRB5 (DRB5*0101) (human)
experimental-protocol: competition ELISA, tracer biotin-HA 306-318
value-kind: relative binding activity

binder="KEFGADCKYKFENWG (also called MDK12) [MDK 78-92]" value_kind="relative binding activity" result="114 IC50 ratio to reference peptide"
binder="CNWKKEFGADCKYKF (also called MDK11) [MDK 74-88]" value_kind="relative binding activity" result="714 IC50 ratio to reference peptide"
binder="GTKVRQGTLKKARYN (also called MDK15) [MDK 99-113]" value_kind="relative binding activity" result="215 IC50 ratio to reference peptide"
binder="RGFLLLTLLALLALT (synthetic 15-mer of the human midkine precursor; also called MDK2; peptide 4-18) [MDK 4-18]" value_kind="relative binding activity" result="46 IC50 ratio to reference peptide"
binder="ARYNAQCQETIRVTK (synthetic 15-mer of the human midkine precursor; also called MDK17) [MDK 110-124]" value_kind="relative binding activity" result="15 IC50 ratio to reference peptide"
binder="LLALTSAVAKKKDKV (synthetic 15-mer of the human midkine precursor; also called MDK4; peptide 14-28) [MDK 14-28]" value_kind="relative binding activity" result="0.1 IC50 ratio to reference peptide"
binder="LTLLALLALTSAVAK (synthetic 15-mer of the human midkine precursor; also called MDK3; peptide 9-23) [MDK 9-23]" value_kind="relative binding activity" result="2 IC50 ratio to reference peptide"
binder="QTQRIRCRVPCNWKK (also called MDK9) [MDK 64-78]" value_kind="relative binding activity" result="61 IC50 ratio to reference peptide"
binder="ETIRVTKPCTPKTKA (also called MDK18) [MDK 119-133]" value_kind="relative binding activity" result="26 IC50 ratio to reference peptide"
binder="CKYKFENWGACDGGT (also called MDK13) [MDK 84-98]" value_kind="relative binding activity" result="292 IC50 ratio to reference peptide"
binder="MQHRGFLLLTLLALL (synthetic 15-mer of the human midkine precursor; also called peptide 1-15) [MDK 1-15]" value_kind="relative binding activity" result="161 IC50 ratio to reference peptide"
